Test system: Mus musculus
Test: Percent packed cell volume at 10 mg/kg per day per mouse
Format: functional
Design: unit not given here
outcome measure: Volume

compound_smiles=O=C1C(CI)=CS(=O)(=O)c2ccccc21 outcome_measure=Volume recorded_result=0.15
compound_smiles=CC1=C(Br)C(=O)c2ccccc2S1(=O)=O outcome_measure=Volume recorded_result=2.82
compound_smiles=O=C1C(Br)=C(c2ccccc2)S(=O)(=O)c2ccccc21 outcome_measure=Volume recorded_result=4.06
compound_smiles=O=C1C=CS(=O)(=O)c2ccccc21 outcome_measure=Volume recorded_result=2.78
compound_smiles=O=C1C(CN(CCCl)CCCl)=CS(=O)(=O)c2ccccc21 outcome_measure=Volume recorded_result=0.01
compound_smiles=O=C(OCC1=CS(=O)(=O)c2ccccc2C1=O)c1ccccc1 outcome_measure=Volume recorded_result=2.7
compound_smiles=CC(C)OCC1=CS(=O)(=O)c2ccccc2C1=O outcome_measure=Volume recorded_result=0.28
compound_smiles=O=C1C(CO)=CS(=O)(=O)c2ccccc21 outcome_measure=Volume recorded_result=0.4

###

System: Mus musculus
Assay: Percent inhibition of Ehrlich ascites carcinoma growth at 10 mg/kg per day
Format: functional
outcome measure: inhibition in vivo at 10 mg/kg/day (%)

molecule=O=C1C(CBr)=CS(=O)(=O)c2ccccc21 assayed_system="Mus musculus" recorded_result=92.8
molecule=COCCOCC1=CS(=O)(=O)c2ccccc2C1=O assayed_system="Mus musculus" recorded_result=98.2
molecule="O=C1c2ccccc2S(=O)(=O)CC1CCl (configuration not stated)" assayed_system="Mus musculus" recorded_result=36.3
molecule=O=C1C(CI)=CS(=O)(=O)c2ccccc21 assayed_system="Mus musculus" recorded_result=98
molecule=O=C(OCC1=CS(=O)(=O)c2ccccc2C1=O)c1ccccc1 assayed_system="Mus musculus" recorded_result=0
molecule=O=C1C(CN(CCCl)CCCl)=CS(=O)(=O)c2ccccc21 assayed_system="Mus musculus" recorded_result=99.9
molecule=Cc1sc2ccccc2c(=O)c1CBr assayed_system="Mus musculus" recorded_result=25.8

###

Tested on: Mus musculus
Experiment: Percent packed cell volume at 10 mg/kg per day per mouse
Type: functional
Set-up: unit not given here
outcome measure: Volume

compound=O=C1C(CN2CCOCC2)=CS(=O)(=O)c2ccccc21 recorded_result=1.25
compound=CCNC(=O)OCC1=CS(=O)(=O)c2ccccc2C1=O recorded_result=0.38
compound=CCCOCC1=CS(=O)(=O)c2ccccc2C1=O recorded_result=0.12
compound=O=C1C(CBr)=C(CBr)S(=O)(=O)c2ccccc21 recorded_result=0.76
compound=COCC1=CS(=O)(=O)c2ccccc2C1=O recorded_result=0.1
compound=COCCOCC1=CS(=O)(=O)c2ccccc2C1=O recorded_result=0.07
compound=O=C1C(CNc2ccccc2)=CS(=O)(=O)c2ccccc21 recorded_result=2.8
compound=O=C1C(Br)=CS(=O)(=O)c2ccccc21 recorded_result=0.99
compound=O=C1C(COC(=O)N(C(=O)Nc2ccccc2)c2ccccc2)=CS(=O)(=O)c2ccccc21 recorded_result=0.58
compound=Cc1sc2ccccc2c(=O)c1CBr recorded_result=2.1
compound=O=COCC1=CS(=O)(=O)c2ccccc2C1=O recorded_result=0.57
compound="O=C1c2ccccc2S(=O)(=O)CC1CCl (stereo not drawn)" recorded_result=1.84
compound=CCOCC1=CS(=O)(=O)c2ccccc2C1=O recorded_result=0.54

###

System: Mus musculus
Test: Percent inhibition of Ehrlich ascites carcinoma growth at 10 mg/kg per day
Type: functional
Quick reference for inhibition in vivo at 10 mg/kg/day among some compounds
outcome measure: inhibition in vivo at 10 mg/kg/day (%)

compound=CCNC(=O)OCC1=CS(=O)(=O)c2ccccc2C1=O outcome_measure="inhibition in vivo at 10 mg/kg/day" recorded_result=99.3
compound=CC(=O)OCC1=CS(=O)(=O)c2ccccc2C1=O outcome_measure="inhibition in vivo at 10 mg/kg/day" recorded_result=99.5
compound=O=COCC1=CS(=O)(=O)c2ccccc2C1=O outcome_measure="inhibition in vivo at 10 mg/kg/day" recorded_result=91.6
compound=O=C1C(Br)=C(c2ccccc2)S(=O)(=O)c2ccccc21 outcome_measure="inhibition in vivo at 10 mg/kg/day" recorded_result=0.4
compound=O=C1C(CBr)=C(CBr)S(=O)(=O)c2ccccc21 outcome_measure="inhibition in vivo at 10 mg/kg/day" recorded_result=53.9
compound=CC(C)OCC1=CS(=O)(=O)c2ccccc2C1=O outcome_measure="inhibition in vivo at 10 mg/kg/day" recorded_result=99.2
compound=O=C1C=CS(=O)(=O)c2ccccc21 outcome_measure="inhibition in vivo at 10 mg/kg/day" recorded_result=5.5
compound=O=C1C(CO)=CS(=O)(=O)c2ccccc21 outcome_measure="inhibition in vivo at 10 mg/kg/day" recorded_result=99.3
compound=CC1=C(Br)C(=O)c2ccccc2S1(=O)=O outcome_measure="inhibition in vivo at 10 mg/kg/day" recorded_result=22.8
compound=O=C1C(COC(=O)N(C(=O)Nc2ccccc2)c2ccccc2)=CS(=O)(=O)c2ccccc21 outcome_measure="inhibition in vivo at 10 mg/kg/day" recorded_result=69.3
compound=O=C1C(COCCCl)=CS(=O)(=O)c2ccccc21 outcome_measure="inhibition in vivo at 10 mg/kg/day" recorded_result=98.1
compound=CCCOCC1=CS(=O)(=O)c2ccccc2C1=O outcome_measure="inhibition in vivo at 10 mg/kg/day" recorded_result=99.9
compound=COCC1=CS(=O)(=O)c2ccccc2C1=O outcome_measure="inhibition in vivo at 10 mg/kg/day" recorded_result=99.9
compound=CCC(=O)OCC1=CS(=O)(=O)c2ccccc2C1=O outcome_measure="inhibition in vivo at 10 mg/kg/day" recorded_result=99.5
compound="O=c1cc[s+]([O-])c2ccccc12 (stereo unspecified)" outcome_measure="inhibition in vivo at 10 mg/kg/day" recorded_result=89.6
compound=O=C1C(COCCBr)=CS(=O)(=O)c2ccccc21 outcome_measure="inhibition in vivo at 10 mg/kg/day" recorded_result=100
compound=O=C1C(CN2CCOCC2)=CS(=O)(=O)c2ccccc21 outcome_measure="inhibition in vivo at 10 mg/kg/day" recorded_result=0
compound=O=C1C(CNc2ccccc2)=CS(=O)(=O)c2ccccc21 outcome_measure="inhibition in vivo at 10 mg/kg/day" recorded_result=0
compound=CCOCC1=CS(=O)(=O)c2ccccc2C1=O outcome_measure="inhibition in vivo at 10 mg/kg/day" recorded_result=92.4
compound=O=C1C(CCl)=C(CCl)C(=O)c2ccccc21 outcome_measure="inhibition in vivo at 10 mg/kg/day" recorded_result=98.8
compound=O=C1C(Br)=CS(=O)(=O)c2ccccc21 outcome_measure="inhibition in vivo at 10 mg/kg/day" recorded_result=69.9

###

Test system: Mus musculus
Experiment: Percent packed cell volume at 10 mg/kg per day per mouse
Format: functional
Parameters: unit not given here
For each record, check the reported Volume: if it is below 0.3 write met, else write not met.

molecule=O=C1C(COCCCl)=CS(=O)(=O)c2ccccc21 classification=met
molecule=O=C1C(CBr)=CS(=O)(=O)c2ccccc21 classification="not met"
molecule=O=C1C(CCl)=C(CCl)C(=O)c2ccccc21 classification="not met"
molecule="O=c1cc[s+]([O-])c2ccccc12 (configuration not stated)" classification=met
molecule=CCC(=O)OCC1=CS(=O)(=O)c2ccccc2C1=O classification=met
molecule=CC(=O)OCC1=CS(=O)(=O)c2ccccc2C1=O classification="not met"
molecule=O=C1C(COCCBr)=CS(=O)(=O)c2ccccc21 classification=met

Sourced from ChEMBL document CHEMBL1121661
